pIC50: −log10 of the molar value.
Recorded below: pIC50, system human full length PDE3A (Homo sapiens, UniProt Q14432).
measurement_type: pIC50

1. Cc1cnccc1-c1ccc(C2=NNC(=O)CC2)cc1F 7.28
2. O=C1CCC(c2ccc(-c3ccccc3OC(F)(F)F)c(F)c2)=NN1 6.74
3. COCCNc1ccc(C2=NNC(=O)CC2)cc1C(F)(F)F 6.92
4. O=C1CCC(c2ccc(-c3ccc(F)cc3)c(F)c2)=NN1 7.05
5. O=C1CCC(c2ccc(-c3ccc(F)nc3)c(F)c2)=NN1 6.92
6. Cc1cc(C2=NNC(=O)CC2)ccc1-c1ccc(F)cc1F 6.96
7. COc1cc(-c2ccc(C3=NNC(=O)CC3)cc2F)ccn1 7.19
8. Cc1cc(C2=NNC(=O)CC2)ccc1Cl 6.18
9. O=C1CCC(c2ccc(C3=CCCC3)c(F)c2)=NN1 6.66
10. Cc1cccc(-c2ccc(C3=NNC(=O)CC3)cc2C)c1 6.70

---

Reported log10(IC50) values follow for various compounds
Test system: SK-MEL-3 (melanoma)
method_notes: Cell proliferation measurement (Cell Titer Glo), SK-MEL-3
Format: cell-based
measurement_context: Homo sapiens, SK-MEL3, SK-MEL-3 cells, 72 h treatment, read-out: Anti-proliferation IC50 SK-MEL-3 (melanoma)
measurement_type: log10(IC50) (log10 of the value in nM)

1. Cc1cc(F)ccc1-c1ccc(C2=NNC(=O)CC2)cc1 0.56
2. Cc1cc(-c2ccc(C3=NNC(=O)CC3)cc2F)ccc1F 1.61
3. Nc1cc(-c2ccc(C3=NNC(=O)CC3)cc2F)ccc1Cl 0.33
4. Cc1cc(C2=NNC(=O)CC2)ccc1-c1cn[nH]c1 1.95
5. O=C1CCC(c2ccc(-c3ccncc3)c(F)c2)=NN1 1.15

---

Reported pIC50 values follow for various compounds
System: SK-MEL-3 (melanoma)
method_notes: Cell proliferation measurement (Cell Titer Glo), SK-MEL-3
Assay type: cell-based
measurement_context: Homo sapiens, SK-MEL3, SK-MEL-3 cells, 72 h treatment, read-out: Anti-proliferation IC50 SK-MEL-3 (melanoma)
pIC50: −log10 of the molar value.
measurement_type: pIC50

compound	reading
O=C1CCC(c2ccc(-c3ccc(F)cc3)c(C(F)(F)F)c2)=NN1 [Example 128]	7.82
O=C1CCC(c2cc(F)c(N3CCCCC3)c(F)c2)=NN1 [Example 16]	8.01
O=C1CCC(c2ccc(-c3cccc(F)c3)c(F)c2)=NN1 [Example 63]	8.19
Cc1ccncc1-c1ccc(C2=NNC(=O)CC2)cc1F [Example 67]	8.44
Cc1cc(C2=NNC(=O)CC2)ccc1-c1cccc(O)c1 [Example 101]	7.44
CC1C2CC2CN1c1c(F)cc(C2=NNC(=O)CC2)cc1F (centres unmarked) [Example 17]	8.52
Cc1cc(F)ccc1-c1ccc(C2=NNC(=O)CC2)cc1C [Example 4]	7.64
Cc1cnccc1-c1ccc(C2=NNC(=O)CC2)cc1F [Example 73]	7.81
Cc1ccc(-c2ccc(C3=NNC(=O)CC3)cc2F)cc1 [Example 87]	8.09
Cc1cc(C2=NNC(=O)CC2)ccc1-c1ccccc1F [Example 109]	7.85
Cc1cc(C2=NNC(=O)CC2)ccc1-c1c(F)cccc1F [Example 110]	7.41
Cc1ccccc1-c1ccc(C2=NNC(=O)CC2)cc1F [Example 77]	8.34
Cc1ncccc1-c1ccc(C2=NNC(=O)CC2)cc1F [Example 33]	7.61
O=C1CCC(c2ccc(NCC(O)C(F)(F)F)c(C(F)(F)F)c2)=NN1 (racemic) [Example 130]	8.06
O=C1CCC(c2ccc(-c3ccccc3C(F)(F)F)c(F)c2)=NN1 [Example 61]	7.42
Cc1ccc(-c2ccc(C3=NNC(=O)CC3)cc2C)c(F)c1 [Example 94]	7.43
CC(C)=Cc1ccc(C2=NNC(=O)CC2)cc1F [Example 27]	8.21
Cc1cc(C2=NNC(=O)CC2)ccc1-c1cc(F)ccc1F [Example 98]	7.19
Cc1cc(C2=NNC(=O)CC2)ccc1-c1ccc(N)cc1 [Example 115]	7.43
COc1ccccc1-c1ccc(C2=NNC(=O)CC2)cc1F [Example 62]	7.64

---

System: SK-MEL-3 (melanoma)
method_notes: Cell proliferation measurement (Cell Titer Glo), SK-MEL-3
Assay type: cell-based
measurement_context: Homo sapiens, SK-MEL3, SK-MEL-3 cells, 72 h treatment, read-out: Anti-proliferation IC50 SK-MEL-3 (melanoma)

molecule	IC50 [nM]
CC1CCCN1c1ccc(C2=NNC(=O)CC2)cc1C(F)(F)F (centres unmarked) [Example 20]	47.7
Cc1ccc(-c2ccc(C3=NNC(=O)CC3)cc2F)cc1N [Example 48]	20.9
O=C1CCC(c2ccc(-c3cnn(C(F)F)c3)c(C(F)(F)F)c2)=NN1 [Example 127]	3.64
Cc1cc(C2=NNC(=O)CC2)ccc1Cl [Example 11]	70.3
O=C1CCC(c2ccc(-c3cc(F)c(F)cc3F)c(F)c2)=NN1 [Example 38]	11.1
Cc1ncc(-c2ccc(C3=NNC(=O)CC3)cc2F)cn1 [Example 31]	47.3
N#Cc1cccc(-c2ccc(C3=NNC(=O)CC3)cc2F)c1 [Example 47]	19.3
Cc1ccc(-c2ccc(C3=NNC(=O)CC3)cc2C)cc1F [Example 107]	52.4
O=C1CCC(c2ccc(-c3ccc(F)nc3)c(F)c2)=NN1 [Example 71]	11.6
Cc1ccc(F)c(-c2ccc(C3=NNC(=O)CC3)cc2F)c1 [Example 68]	71.2
O=C1CCC(c2ccc(-c3ccccc3F)c(F)c2)=NN1 [Example 60]	4.2
O=C1CCC(c2ccc(-c3ccncc3Cl)c(F)c2)=NN1 [Example 69]	38.6
Cc1cc(C2=NNC(=O)CC2)ccc1-c1cc(F)c(F)cc1F [Example 95]	60.7
O=C1CCC(c2ccc(N3CC4CC(C3)C4(F)F)c(C(F)(F)F)c2)=NN1 [Example 21]	5.82
Nc1cccc(-c2ccc(C3=NNC(=O)CC3)cc2F)c1 [Example 65]	16.9

---

Recorded below: IC50, system human full length PDE3A (Homo sapiens).
measurement_type: IC50 (nM)

1) Cc1cc(C2=NNC(=O)CC2)ccc1-c1ccc(Cl)c(N)c1 160
2) Cc1cc(F)ccc1-c1ccc(C2=NNC(=O)CC2)cc1C 420
3) Cc1cc(C2=NNC(=O)CC2)ccc1-c1ccncc1 120
4) O=C1CCC(c2cc(F)c(N3CCC(F)(F)CC3)c(F)c2)=NN1 110
5) O=C1CCC(c2ccc(-c3cccc4[nH]ccc34)c(F)c2)=NN1 100
6) Cc1cc(-c2ccc(C3=NNC(=O)CC3)cc2F)ccc1F 270
7) Cc1cc(C2=NNC(=O)CC2)ccc1-c1ccc(F)cc1 190
8) COc1ccccc1-c1ccc(C2=NNC(=O)CC2)cc1F 120
9) COc1ccc(C2=NNC(=O)CC2)cc1Cl 110
10) O=C1CCC(c2ccc(-c3cncnc3)c(F)c2)=NN1 140

---

Reported pIC50 values follow for various compounds
Tested on: SK-MEL-3 (melanoma)
method_notes: Cell proliferation measurement (Cell Titer Glo), SK-MEL-3
Type: cell-based
measurement_context: Homo sapiens, SK-MEL3, SK-MEL-3 cells, 72 h treatment, read-out: Anti-proliferation IC50 SK-MEL-3 (melanoma)
Procedure: The antiproliferative activity of the compounds of the general formula (I) was examined in vitro in human cancer cells. […] After 72 h, the cells were treated with 20 μl/well of 50% CTG solution in PBS (Promega Cell Titer Glo (catalogue #G755B and G756B)) and incubated at room temperature for 10 min, and luminescence was measured by means of a VICTOR V (Perkin Elmer), in order to determine cell viability at the end of treatment. […] The IC50 values were calculated using a 4-parameter fit.
pIC50: −log10 of the molar value.

compound	pIC50
COc1cccc(-c2ccc(C3=NNC(=O)CC3)cc2F)c1OC [Example 78]	7.16
Cc1cc(C2=NNC(=O)CC2)ccc1-c1ccncc1 [Example 5]	7.18
N#Cc1ccc(-c2ccc(C3=NNC(=O)CC3)cc2F)cc1 [Example 46]	7.90
Cc1ccc(-c2ccc(C3=NNC(=O)CC3)cc2F)cc1F [Example 58]	8.11
Cc1cc(C2=NNC(=O)CC2)ccc1-c1ccc(Cl)cc1 [Example 122]	8.00
Cc1ccc(-c2ccc(C3=NNC(=O)CC3)cc2F)c(F)c1 [Example 37]	8.14
COc1ccc(C2=NNC(=O)CC2)cc1Cl [Example 10]	7.40
O=C1CCC(c2ccc(-c3ccc(F)c(Cl)c3)c(F)c2)=NN1 [Example 83]	7.21

---

Reported pIC50 values follow for various compounds
experimental_system: human full length PDE3A (Homo sapiens)
Sequence (Q14432 whole entry): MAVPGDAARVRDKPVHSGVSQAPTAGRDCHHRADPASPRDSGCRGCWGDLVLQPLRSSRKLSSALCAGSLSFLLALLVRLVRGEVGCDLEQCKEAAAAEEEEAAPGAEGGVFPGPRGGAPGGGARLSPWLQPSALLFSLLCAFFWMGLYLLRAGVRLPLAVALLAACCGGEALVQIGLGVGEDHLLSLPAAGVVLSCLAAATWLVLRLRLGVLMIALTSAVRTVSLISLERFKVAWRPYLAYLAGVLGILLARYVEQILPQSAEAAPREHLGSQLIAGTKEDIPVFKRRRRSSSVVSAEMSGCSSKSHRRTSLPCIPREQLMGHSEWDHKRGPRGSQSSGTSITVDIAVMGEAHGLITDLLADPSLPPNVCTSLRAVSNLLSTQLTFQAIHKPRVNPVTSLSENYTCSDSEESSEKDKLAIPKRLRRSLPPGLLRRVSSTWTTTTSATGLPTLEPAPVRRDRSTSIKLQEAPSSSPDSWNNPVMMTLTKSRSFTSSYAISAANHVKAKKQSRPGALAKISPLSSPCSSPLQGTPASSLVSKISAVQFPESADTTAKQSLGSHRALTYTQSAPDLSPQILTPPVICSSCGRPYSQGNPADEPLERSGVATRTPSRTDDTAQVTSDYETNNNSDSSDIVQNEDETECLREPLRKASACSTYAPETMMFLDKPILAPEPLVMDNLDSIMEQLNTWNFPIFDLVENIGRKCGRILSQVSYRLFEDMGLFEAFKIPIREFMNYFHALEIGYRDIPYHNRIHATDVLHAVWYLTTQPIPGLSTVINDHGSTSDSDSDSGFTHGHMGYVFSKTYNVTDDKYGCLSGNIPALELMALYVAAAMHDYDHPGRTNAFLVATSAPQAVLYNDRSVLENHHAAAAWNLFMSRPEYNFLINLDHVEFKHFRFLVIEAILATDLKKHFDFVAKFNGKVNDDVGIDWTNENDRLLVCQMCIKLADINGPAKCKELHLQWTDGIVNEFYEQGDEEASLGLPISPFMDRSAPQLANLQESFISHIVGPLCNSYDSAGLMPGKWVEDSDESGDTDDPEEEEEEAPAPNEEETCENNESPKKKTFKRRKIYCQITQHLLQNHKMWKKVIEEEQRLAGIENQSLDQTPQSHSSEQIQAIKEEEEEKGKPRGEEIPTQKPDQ
pIC50: −log10 of the molar value.
measurement_type: pIC50

compound	reading
O=C1CCC(c2cc(Cl)c(N3CCOCC3)c(Cl)c2)=NN1 [Example 124]	7.23
Cc1ccc(F)c(-c2ccc(C3=NNC(=O)CC3)cc2F)c1 [Example 68]	6.80
O=C1CCC(c2ccc(-c3cccc(O)c3)c(F)c2)=NN1 [Example 49]	7.20
O=C1CCC(c2ccc(NCC(O)C(F)(F)F)c(C(F)(F)F)c2)=NN1 (racemic) [Example 130]	7.05
O=C1CCC(c2ccc(C3=CCOCC3)cc2)=NN1 [Example 1]	6.33
Cc1cc(C2=NNC(=O)CC2)ccc1-c1ccccc1O [Example 102]	6.34
O=C1CCC(c2ccc(-c3cncc(C(F)(F)F)c3)c(F)c2)=NN1 [Example 29]	6.80
Nc1ccc(F)cc1-c1ccc(C2=NNC(=O)CC2)cc1F [Example 43]	6.96
Cc1ccc(-c2ccc(C3=NNC(=O)CC3)cc2F)c(C)c1 [Example 56]	6.96
